Reported CRF2R Emax % is given for each of the following binders.
# EXPERIMENTAL SYSTEM: T1, CRF2R; also: reference of the scale not given here
# T1 sequence (Q13324 whole entry, species assumed, looked up): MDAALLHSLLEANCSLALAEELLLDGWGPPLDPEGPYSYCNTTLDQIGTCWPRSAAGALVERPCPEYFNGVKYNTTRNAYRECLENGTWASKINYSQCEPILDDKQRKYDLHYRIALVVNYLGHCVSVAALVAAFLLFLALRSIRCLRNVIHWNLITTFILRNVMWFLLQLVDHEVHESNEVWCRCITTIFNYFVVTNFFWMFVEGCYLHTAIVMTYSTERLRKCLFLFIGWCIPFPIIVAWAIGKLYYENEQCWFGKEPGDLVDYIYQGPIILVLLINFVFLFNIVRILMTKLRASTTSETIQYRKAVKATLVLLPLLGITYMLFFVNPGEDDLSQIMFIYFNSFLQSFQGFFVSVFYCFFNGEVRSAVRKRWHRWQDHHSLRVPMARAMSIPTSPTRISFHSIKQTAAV
# EXPERIMENT NOTES: cell-based or functional assay
Ends that are not written are not given here.
ATTRIBUTE MEASURED: CRF2R Emax % (%)

binder="PSLSIDLPLFLLRTLLELEKTQSQRERAEQNARIFARV-NH2 [SEQ ID NO 331]" unit_annotation=% result=100
binder="ZGPPISIDLPIFLLRKMIEIEKQEKEKQQAANNARLLARI (not fully specified; C-terminal amide) [SEQ ID NO 282]" unit_annotation=% result=60.8
binder="ZGPPISIDLPFALLRKMIEIEKQEKEKQQAANNRLLLDTI (C-terminal amide) [SEQ ID NO 307]" unit_annotation=% result=96.5
binder="NDDPPISIDLPFHLLRNMIEMARIENEREQAGLNAKYLAEV-NH2 [SEQ ID NO 262]" unit_annotation=% result=92.2
binder="ZGPPISIDLPYWLLRKVIEIEKQEKEKQQAANNALLLDTI (C-terminal amide) [SEQ ID NO 311]" unit_annotation=% result=100
binder="ZGPPISIDLPQILLRKVIEIEKQEKEKQQAANNARLLARI (C-terminal amide) [SEQ ID NO 294]" unit_annotation=% result=100
binder="ZGPPISIDLPFFLLRKMIEIEKQEKEKQQAANNALLLATI (C-terminal amide) [SEQ ID NO 319]" unit_annotation=% result=95
binder="ZGPPISIDLPFFLLRKMIEIEKQEKEKQQAANNRLLLDTI (C-terminal amide) [SEQ ID NO 223]" unit_annotation=% result=92
binder="DNPSLSIDLPLLLLRTLLELEKTQSQRERAEQNAHIFAHV-NH2 [SEQ ID NO 328]" unit_annotation=% result=95.7
binder="DNPSLSIDLPLFLLRTLLELEKTQSQRERAEQNAIIFASV-NH2 [SEQ ID NO 343]" unit_annotation=% result=96.5
binder="ZGPPISIDLPLQLLEKMIEIEKQEKEKQQAANNALLLATI (not fully specified; C-terminal amide) [SEQ ID NO 249]" unit_annotation=% result=92
binder="ZGPPISIDVPTYLLRKMIEIEKQEKEKQQAANNRLLLDTI (C-terminal amide) [SEQ ID NO 253]" unit_annotation=% result=86
